fraction unbound at 5 h, 10 μg/mL values for the molecules below.
# PROCEDURE SUMMARY: Plasma protein binding (equilibrium dialysis)
# Format: in vitro ADME
# COND: female, NMRI; mouse plasma protein binding; read-out: PPB (converted)
# Experimental: by the addition of excess NADPH (8 mg/mL 50 mM potassium phosphate buffer, pH 7.4). […] XLfit (IDBS, UK) was used to calculate the exponential decay and consequently the rate constant (k) from the ratio of peak area of test compound to internal standard at each timepoint. The rate of intrinsic clearance (CLi) of each test compound was then calculated using the following calculation: […]
Respond with the number and no other words.

Here are 4 molecules together with their reported answers.
{"columns": ["SMILES STRING", "fraction unbound at 5 h, 10 μg/mL"],
 "data": [
  ["O=C(NCCN1CCCC1)c1cc(-c2ccc(CN3CCOCC3)cc2Cl)nc2ccc(F)cc12", 0.44],
  ["O=C(NCCN1CCCC1)c1cc(NCCC2CCOCC2)nc2ccc(Cl)cc12", 0.23],
  ["O=C(NCCN1CCCC1)c1cc(NCCCN2CCOCC2)nc2ccc(F)cc12", 0.41],
  ["O=C(NCCN1CCCC1)c1cc(-c2ccc(S(=O)(=O)N3CCOCC3)cc2)nc2ccc(F)cc12", 0.25]
]}

Turning now to a further molecule:
Returns the measured fraction unbound at 5 h, 10 μg/mL for the input molecule. Input: O=C(NCCN1CCCC1)c1cc(NCCCCN2CCOCC2)nc2ccc(Cl)cc12
0.51
